Please respond with reported melting point for every item in the list.

Reference set (3 entries):
{"columns": ["chem_smiles", "reported_metric", "test_value"],
 "data": [
  ["CC(C)C[C@H](NS(=O)(=O)N1CCCCC1)C(=O)N[C@@H](Cc1ccc(OCc2ccccc2)cc1)C(=O)OC(C)(C)C", "melting point", "125 to 126 °C"],
  ["CC(C)C[C@H](NC(=O)N1CCCCCC1)C(=O)N[C@@H](Cc1ccc(C#CC(C)(C)C)cc1)C(=O)NC(C)(C)C", "melting point", "180 to 181 °C"],
  ["CC(C)C[C@H](NC(=O)N1CCCCCC1)C(=O)N[C@@H](Cc1ccc(C#CC2CCCCC2)cc1)C(=O)NC(C)(C)C", "melting point", "171 to 172 °C"]
]}

Please find the next compound below.
Query string: Return the recorded melting point value; entry: "CC(C)C[C@H](NS(=O)(=O)c1ccc(C(C)(C)C)cc1)C(=O)N[C@@H](Cc1ccc(OCc2ccccc2)cc1)C(=O)OC(C)(C)C"
Result string: 142 to 143 °C
